- System: Pseudomonas aeruginosa
- Assay comment: MIC, CLSI broth microdilution, Pseudomonas aeruginosa panel
- Type: cell-based
- Assay context: Pseudomonas aeruginosa, P. aeruginosa clinical strain 10 (resistant clinical isolate); read-out: MIC
Observable: MIC

Use these answered entries as a reference point.
{"columns": ["Smiles code", "MIC"],
 "data": [
  ["NCC[C@H](O)C(=O)N[C@@H]1C[C@H](N)[C@@H](O[C@H]2O[C@H](CNCCO)[C@@H](O)C[C@H]2N)[C@H](O[C@@H]2O[C@H](CO)[C@@H](O[C@H]3O[C@@H](CN)[C@@H](O)[C@H](O)[C@H]3N)[C@H]2O)[C@H]1O", "8 to 16 µg/mL"],
  ["NCC[C@H](O)C(=O)N[C@@H]1C[C@H](N)[C@@H](O[C@H]2O[C@H](CN)[C@@H](O)[C@H](O)[C@H]2O)[C@H](O)[C@H]1O[C@H]1O[C@H](CO)[C@@H](O)[C@H](N)[C@H]1O", "16 to 32 µg/mL"],
  ["NC[C@@H]1O[C@H](O[C@H]2[C@@H](O)[C@H](O[C@@H]3[C@@H](O)[C@H](NC(=O)[C@@H](O)CN)C[C@H](N)[C@H]3O[C@H]3O[C@H](CNCCO)[C@@H](O)C[C@H]3N)O[C@@H]2CO)[C@H](N)[C@@H](O)[C@@H]1O", "1 to 8 µg/mL"]
]}

Read the next record carefully.
Entry NC[C@H]1O[C@H](O[C@H]2[C@H](O)[C@@H](O[C@H]3O[C@H](CO)[C@@H](O)[C@H](N)[C@H]3O)[C@H](N)C[C@@H]2N)[C@H](N)C[C@@H]1O has what MIC?
≥ 32 µg/mL

====

- Tested on: Pseudomonas aeruginosa
- Assay comment: MIC, CLSI broth microdilution, Pseudomonas aeruginosa panel
- Assay type: cell-based
- Assay context: Pseudomonas aeruginosa, P. aeruginosa clinical strain 22 (resistant clinical isolate); read-out: MIC
Here, each record is paired with measured MIC data.

Use these answered entries as a reference point.
{"columns": ["Compound", "Result"],
 "data": [
  ["NCC[C@H](O)C(=O)N[C@@H]1C[C@H](N)[C@@H](O[C@H]2O[C@H](CN)[C@@H](O)[C@H](O)[C@H]2O)[C@H](O)[C@H]1O[C@H]1O[C@H](CO)[C@@H](O)[C@H](N)[C@H]1O [AMK, amikacin]", "16 to 32 µg/mL"],
  ["NC[C@H]1O[C@H](O[C@H]2[C@H](O)[C@@H](O[C@H]3O[C@H](CO)[C@@H](O)[C@H](N)[C@H]3O)[C@H](N)C[C@@H]2N)[C@H](N)C[C@@H]1O [TOB, tobramycin]", "≤ 1 µg/mL"],
  ["NCC[C@H](O)C(=O)N[C@@H]1C[C@H](N)[C@@H](O[C@H]2O[C@H](CNCCO)[C@@H](O)C[C@H]2N)[C@H](O[C@@H]2O[C@H](CO)[C@@H](O[C@H]3O[C@@H](CN)[C@@H](O)[C@H](O)[C@H]3N)[C@H]2O)[C@H]1O [Compound 18]", "1 to 8 µg/mL"]
]}

Read the next record carefully.
Entry NC[C@@H]1O[C@H](O[C@H]2[C@@H](O)[C@H](O[C@@H]3[C@@H](O)[C@H](NC(=O)[C@@H](O)CN)C[C@H](N)[C@H]3O[C@H]3O[C@H](CNCCO)[C@@H](O)C[C@H]3N)O[C@@H]2CO)[C@H](N)[C@@H](O)[C@@H]1O [Compound 20] has what MIC?
1 to 8 µg/mL

====

- System: Acinetobacter baumannii
- Assay comment: MIC, CLSI broth microdilution, Acinetobacter baumannii panel
- Type: cell-based
- Assay context: Acinetobacter baumannii, A. baumannii clinical strain 11 (resistant clinical isolate); read-out: MIC
Observable: MIC

Fill in the recorded MIC for this compound, with Acinetobacter baumannii as test system: NCC[C@H](O)C(=O)N[C@@H]1C[C@H](N)[C@@H](O[C@H]2O[C@H](CNCCO)[C@@H](O)C[C@H]2N)[C@H](O[C@@H]2O[C@H](CO)[C@@H](O[C@H]3O[C@@H](CN)[C@@H](O)[C@H](O)[C@H]3N)[C@H]2O)[C@H]1O
≤ 1 µg/mL

Fill in the recorded MIC for this compound, with Acinetobacter baumannii as test system: NC[C@H]1O[C@H](O[C@H]2[C@H](O)[C@@H](O[C@H]3O[C@H](CO)[C@@H](O)[C@H](N)[C@H]3O)[C@H](N)C[C@@H]2N)[C@H](N)C[C@@H]1O
≥ 32 µg/mL

Fill in the recorded MIC for this compound, with Acinetobacter baumannii as test system: NC[C@@H]1O[C@H](O[C@H]2[C@@H](O)[C@H](O[C@@H]3[C@@H](O)[C@H](NC(=O)[C@@H](O)CN)C[C@H](N)[C@H]3O[C@H]3O[C@H](CNCCO)[C@@H](O)C[C@H]3N)O[C@@H]2CO)[C@H](N)[C@@H](O)[C@@H]1O
≤ 1 µg/mL

Source of measurements: patent US8653041B2
